assay: Equilibrium solubility in water, potentiometric (pH-metric) CheqSol method; type: physicochemical; settings: 25 °C, thermodynamic from solid, 25 °C, read-out: equilibrium concentration (solubility, S)
Result Type: solubility (µM)
Answers are plain numbers, in µM.

Return the recorded solubility value; entry: Cc1nc2c(OC3CCOc4cc(F)cc(F)c43)cc(C(=O)N(C)C)cc2[nH]1 (stereo not shown) [Polymorph A] 1440

---

Experiment: Equilibrium solubility in water, potentiometric (pH-metric) CheqSol method
Assay type: physicochemical
Settings: 15 °C, thermodynamic from solid, 15 °C, read-out: equilibrium concentration (solubility, S)
Experimental: Solubility (S) measurements were conducted in water using the CheqSol system at five temperatures: 15 °C, 25 °C, 35 °C, 45 °C, and 55 °C. However, due to the hydrolytic instability of Tegoprazan at elevated temperatures and the pH-dependent nature of the CheqSol assay, reliable measurements could only be obtained at 15 °C and 25 °C. […]
Result Type: solubility (µM)
Give bare numbers, in µM.

Return the recorded solubility value; entry: Cc1nc2c(OC3CCOc4cc(F)cc(F)c43)cc(C(=O)N(C)C)cc2[nH]1 (stereo not shown) [Polymorph A] 1250

This collection of values is drawn from paper PMC11990383.
